Molecular target: human Protein Tyrosine Phosphatase Non-receptor Type 2 (PTPN2), PTPN2 (gene 5771)
Assay: NVS_ENZ_hPTPN2: NovaScreen (NVS) Enzymatic Assay for human Protein Tyrosine Phosphatase Non-receptor Type 2 (PTPN2) (AID 2283207)
Results filed as inconclusive are left out. Active and inactive are the calls of the source. How the source made its calls: active means hit-call score of the fitted dose curve at least 0.9, where 1 is the maximum; inconclusive means response in the unintended direction; inactive means score below 0.9.
assayMetric: AC50

Solved entries (count: 4):
O=C(O)C1(C(=O)Nc2ccc(Cl)cc2Cl)CC1 : 10.1 µM (active)
NCCO : inactive
CCOC(=O)NCCOc1ccc(Oc2ccccc2)cc1 : inactive
COc1cc(C(=O)NC2CCN(C)CC2)ccc1Nc1ncc2c(n1)N(C1CCCC1)CC(F)(F)C(=O)N2C : 6.13 µM (active)

Which AC50 is reported for this molecule? "O=C(OCCCCCOC(=O)c1ccccc1)c1ccccc1" inactive

I would be grateful if you could share the reported AC50 for "O=c1[nH]cnc2c1ncn2[C@H]1CC[C@@H](CO)O1" . inactive

Param item = "O=[N+]([O-])c1ccc(Cl)cc1" ; retrieve measured AC50. inactive

GET /values?readout=AC50&item= "CCCCCCCCCCCCc1ccccc1S(=O)(=O)O" 19.9 µM (active)
